- TARGET: CD71 on SK-BR-3 cells (human, UniProt P02786 1-760)
- Sequence (P02786 whole entry): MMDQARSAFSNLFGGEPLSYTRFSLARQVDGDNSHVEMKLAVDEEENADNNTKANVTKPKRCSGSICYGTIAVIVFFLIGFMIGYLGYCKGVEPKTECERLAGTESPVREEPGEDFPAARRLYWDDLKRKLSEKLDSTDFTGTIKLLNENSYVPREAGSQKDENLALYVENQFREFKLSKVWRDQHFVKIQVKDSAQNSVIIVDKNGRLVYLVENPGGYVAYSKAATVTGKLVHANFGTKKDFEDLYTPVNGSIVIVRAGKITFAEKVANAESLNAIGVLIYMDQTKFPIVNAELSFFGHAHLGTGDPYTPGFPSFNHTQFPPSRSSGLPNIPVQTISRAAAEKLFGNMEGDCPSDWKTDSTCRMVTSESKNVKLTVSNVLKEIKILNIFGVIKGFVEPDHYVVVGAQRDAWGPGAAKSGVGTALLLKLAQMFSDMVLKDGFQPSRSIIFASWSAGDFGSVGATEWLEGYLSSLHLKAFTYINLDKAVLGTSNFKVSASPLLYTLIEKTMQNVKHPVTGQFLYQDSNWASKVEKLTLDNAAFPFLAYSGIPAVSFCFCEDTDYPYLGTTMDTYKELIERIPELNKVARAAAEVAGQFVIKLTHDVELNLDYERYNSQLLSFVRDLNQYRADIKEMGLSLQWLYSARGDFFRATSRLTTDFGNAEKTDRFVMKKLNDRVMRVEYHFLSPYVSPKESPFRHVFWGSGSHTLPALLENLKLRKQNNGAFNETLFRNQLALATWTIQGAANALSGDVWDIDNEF
- TEST: cell-based or functional assay
MEASUREMENT_LABEL: IC50, SKBR-3 cell viability, MMAF conjugate (nM)

{"BINDER": "SEQ ID NO 61 (designed binder, FN3 domain) MLPAPKNLVVSRVTEDSARLSWRVESRTFDSFLIQYQESEKVGEAIVLTVPGSERSYDLTGLKPGTEYTVSIYGVVWDTRDNPISNPLSAIFTT", "EXPERIMENTAL_VALUE": 1.93}
{"BINDER": "SEQ ID NO 36 (designed binder, FN3 domain) MLPAPKNLVVSRVTEDSARLSWTAPDAAFDSFTITYIEWWENGEAIALSVPGSERSYDLTGLKPGTEYQVGIAGVKGGYKSYPLWALFTT", "EXPERIMENTAL_VALUE": 7.1}
{"BINDER": "SEQ ID NO 47 (designed binder, FN3 domain) MLPAPKNLVVSRVTEDSARLSWTAPDAAFDSFTIWYAEALGDGEAIVLTVPGSERSYDLTGLKPGTEYFVDIYGVKGGFWSLPLSAIFTT", "EXPERIMENTAL_VALUE": 5.9}
{"BINDER": "SEQ ID NO 60 (designed binder, FN3 domain) MLPAPKNLVVSRVTEDSARLSWTAPDAAFDSFTIWYAEAIGHGEAIVLTVPGSERSYDLTGLKPGTEYWVDIWGVKGGQQSKPLSAIFTT", "EXPERIMENTAL_VALUE": 0.45}
{"BINDER": "SEQ ID NO 58 (designed binder, FN3 domain) MLPAPKNLVVSRVTEDSARLSWTAPDAAFDSFTIWYAEADGWGEAIVLTVPGSERSYDLTGLKPGTEYFVDIYGVKGGYLSVPLSAIFTT", "EXPERIMENTAL_VALUE": 7.7}
{"BINDER": "SEQ ID NO 34 (designed binder, FN3 domain) MLPAPKNLVVSRVTEDSARLSWTAPDAAFDSFAITYIEWWDVGEAIGLKVPGSERSYDLTGLKPGTEYRVHIQGVKGGNNSYPLDALFTT", "EXPERIMENTAL_VALUE": 0.37}
{"BINDER": "SEQ ID NO 37 (designed binder, FN3 domain) MLPAPKNLVVSRVTEDSARLSWTAPDAAFDSFHIIYTEEEKEGEAIYLRVPGSERSYDLTGLKPGTEYLVEIEGVKGGKRSVPLNASFTT", "EXPERIMENTAL_VALUE": 0.15}
{"BINDER": "SEQ ID NO 53 (designed binder, FN3 domain) MLPAPKNLVVSRVTEDSARLSWTAPDAAFDSFFISYIEWWDLGEAIVLTVPGSERSYDLTGLKPGTEYHVEIFGVKGGTQSYPLSAIFTT", "EXPERIMENTAL_VALUE": 0.07}
{"BINDER": "SEQ ID NO 38 (designed binder, FN3 domain) MLPAPKNLVVSRVTEDSARLSWTAPDAAFDSFHIAYEESHTTGEAIFLRVPGSERSYDLTGLKPGTEYSVSIEGVKGGHYSPPLTAKFTT", "EXPERIMENTAL_VALUE": 3.82}
{"BINDER": "SEQ ID NO 48 (designed binder, FN3 domain) MLPAPKNLVVSRVTEDSARLSWTAPDAAFDSFVIEYFEQFNLGEAIVLTVPGSERSYDLTGLKPGTEYWVGIYGVKGGWLSHPLSAIFTT", "EXPERIMENTAL_VALUE": 0.42}
{"BINDER": "SEQ ID NO 54 (designed binder, FN3 domain) MLPAPKNLVVSRVTEDSARLSWTAPDAAFDSFQILYQENAFEGEAIVLTVPGSERSYDLTGLKPGTEYWVYIYGVKGGYPSVPLSAIFTT", "EXPERIMENTAL_VALUE": 0.4}
{"BINDER": "SEQ ID NO 49 (designed binder, FN3 domain) MLPAPKNLVVSRVTEDSARLSWTAPDAAFDSFGISYLEWWEDGEAIVLTVPGSERSYDLTGLKPGTEYWVSIAGVKGGKRSYPLSAIFTT", "EXPERIMENTAL_VALUE": 3}
{"BINDER": "SEQ ID NO 33 (designed binder, FN3 domain) MLPAPKNLVVSRVTEDSARLSWTAPDAAFDSFTIQYEELTTVGEAIYLRVPGSERSYDLTGLKPGTEYVVWIEGVKGGLRSNPLGAAFTT", "EXPERIMENTAL_VALUE": 3.27}
{"BINDER": "SEQ ID NO 42 (designed binder, FN3 domain) MLPAPKNLVVSRVTEDSARLSWTAPDAAFDSFTIEYYESFYGGEAIVLTVPGSERSYDLTGLKPGTEYYVSIYGVKGGWLSRPLSAIFTT", "EXPERIMENTAL_VALUE": 0.19}
{"BINDER": "SEQ ID NO 46 (designed binder, FN3 domain) MLPAPKNLVVSRVTEDSARLSWTAPDAAFDSFTIEYFEFTGTGEAIVLTVPGSERSYDLTGLKPGTEYYVSIYGVKGGLLSAPLSAIFTT", "EXPERIMENTAL_VALUE": 2.69}
{"BINDER": "SEQ ID NO 41 (designed binder, FN3 domain) MLPAPKNLVISRVTEDSARLSWTAPDAAFDSFFIYYIESYPAGEAIVLTVPGSERSYDLTGLKPGTEYWVGIDGVKGGRWSTPLSAIFTT", "EXPERIMENTAL_VALUE": 4.7}
{"BINDER": "SEQ ID NO 52 (designed binder, FN3 domain) MLPAPKNLVVSRVTEDSARLSWTAPDAAFDSFKISYQEWWEDGEAIVLTVPGSERSYDLTGLKPGTEYWVNISGVKGGVQSYPLSAIFTT", "EXPERIMENTAL_VALUE": 6.3}

The origin of these recorded values is patent US20210145976A1.
